Just for reference, the supplement of paper PMC10201428 is where these values come from.

# Tested on: VchCAST RNA-guided transposition machinery (E. coli BL21(DE3) host, lacZ target)
# Test Name: relative integration efficiency (T-RL orientation) vs wild-type transposon end (log2 (normalized fold change)); transposon end mutated: left end; higher = more efficient transposition

- Sequence Content: "AATGTTGTTGATGCAACCATAAAGTGATATTTAATAATTATTTATAATCAGCAACTTAACCACAAAACAACCATATATTGATATCTCACAAAACCCAACGCCTGGTCGCGGGGGTGTCCGATCTGATTTCAGCAAAACTACTGCAGTAAGAA"
  relative integration efficiency (log2): -2.31
- Sequence Content: "AATGTTGTTGATGCAACCATAAAATGATAATTAATAATTATTTATAATCAGCAACTTAACCACAAAACACCCATAAATTGATAATTAACAAAAGTTGGTATTCAACTATAAAATGTGAATCGAGTATTTCAGCAAAACTACTGCAGTAAGAA"
  relative integration efficiency (log2): -2.02
